Kindly state T/C for each of the entries shown.
# Test system: L1210 leukemia ip in BDF1 mice, survival T/C
# Assay Summary: NCI In Vivo Anticancer Drug Screen. Data for tumor model L1210 Leukemia (intraperitoneal) in B6D2F1 (BDF1) mice
# Condition Parameters: endpoint: mean survival time; dose: 400.0 mg/kg/injection; schedule: Q04DX002 (ip); vehicle: Klucel (hydroxypropylcellulose) (HPC); higher = longer survival
Inconclusive results and toxic doses are left out.

Any idea what T/C was measured for CCCCCCCCCCCCN=C(N)N/C(N)=N/S(=O)(=O)c1ccc(OCCCCC)cc1 ? 95 % of control

Any idea what T/C was measured for ClC1C2CC3C1C3C2C(Cl)(Cl)Cl (configuration not stated) ? 90 % of control

Any idea what T/C was measured for O=C(O)c1ccccc1CBr ? 93 % of control

Any idea what T/C was measured for O=C(Nc1cc(C(F)(F)F)ccc1Cl)N(Cc1ccccc1)c1ccccc1 ? 98 % of control

Any idea what T/C was measured for O=c1[nH]c2ccccc2c(=O)n1CCCN1CCN(c2cccc(Cl)c2)CC1 ? 104 % of control

Any idea what T/C was measured for O=C(NCCCCCCNC(=O)NCCN1CCOCC1)NCCN1CCOCC1 ? 97 % of control

Any idea what T/C was measured for S=C(NCC1CCCO1)Nc1cccc2ccccc12 (configuration not stated) ? 95 % of control

Any idea what T/C was measured for CC(C)c1nc2c(n1Cc1ccccc1)C=C(C(=O)c1ccccc1)S(=O)(=O)C(C(=O)c1ccccc1)=C2 ? 93 % of control

Any idea what T/C was measured for COC(=O)C(=O)CC(=O)c1cccc(OC)c1 ? 103 % of control

Any idea what T/C was measured for CCCCCCCCCC(=O)N1CCCCCC1 ? 88 % of control

Any idea what T/C was measured for Clc1ccc(N=Nc2ccccn2)cc1 ? 93 % of control

Any idea what T/C was measured for Oc1ccc(-c2nnc(-c3ccc(O)cc3)nn2)cc1 ? 102 % of control

* * *

Kindly state T/C for each of the entries shown.
# System: L1210 leukemia ip in BDF1 mice, survival T/C
# Assay Summary: NCI In Vivo Anticancer Drug Screen. Data for tumor model L1210 Leukemia (intraperitoneal) in B6D2F1 (BDF1) mice
# Condition Parameters: endpoint: mean survival time; dose: 200.0 mg/kg/injection; schedule: Q04DX003 (ip); vehicle: saline with Tween-80; higher = longer survival
Toxic doses and inconclusive results are not listed.

Any idea what T/C was measured for CCOC(=O)c1ccc(N2C(=O)c3cccc4cccc(c34)C2=O)cc1 ? 98 % of control

Any idea what T/C was measured for CSc1ccc(NC(=O)NS(=O)(=O)c2ccc(C)cc2)cc1 ? 89 % of control

Any idea what T/C was measured for CC(C)(C)C(=O)CC(=O)C(C)(C)C.CC(C)(C)C(=O)CC(=O)C(C)(C)C.CC(C)(C)C(=O)CC(=O)C(C)(C)C.[Tb] ? 93 % of control

Any idea what T/C was measured for CCOCC(O)(c1ccc(Cl)cc1)c1ccc(Cl)cc1 ? 95 % of control

Any idea what T/C was measured for COC(=O)c1cc([N+](=O)[O-])ccc1Br ? 93 % of control

Any idea what T/C was measured for CC1CCC(C(C)C)C2(C1)NC(=O)N(CC(=O)O)C2=O (stereo unspecified) ? 100 % of control

Any idea what T/C was measured for CC(C)Cc1ccc(N=Nc2ccccc2)cc1 ? 93 % of control

Any idea what T/C was measured for O=C(Nc1ccc2c(c1)OCO2)O/N=C\c1cccnc1 ? 113 % of control

Any idea what T/C was measured for Nc1nc(=S)[nH][nH]1 ? 98 % of control

Any idea what T/C was measured for CCN1c2ccccc2Sc2ccccc21 ? 97 % of control

Any idea what T/C was measured for COc1c(N(C)C)cc2c(c1C)OC(C)(C)C=C2 ? 94 % of control

Any idea what T/C was measured for CCCCCCCC(=O)Nc1c(C)cc(C)cc1C ? 92 % of control

Any idea what T/C was measured for C(=N\n1cnnc1)/c1ccc2c(c1)CCC2 ? 112 % of control

Any idea what T/C was measured for C=CC(C)(C)c1ccccc1O ? 104 % of control

Any idea what T/C was measured for COc1ccc(CNCC(=O)OCc2ccccc2)cc1 ? 101 % of control

Any idea what T/C was measured for O=C(O)c1ccc(-c2ccc(C(=O)O)cc2I)c(I)c1 ? 96 % of control

Any idea what T/C was measured for CCOC(=O)c1c(NC(=O)C(F)(F)F)[nH]c(SSc2[nH]c(NC(=O)C(F)(F)F)c(C(=O)OCC)c2C(=O)OCC)c1C(=O)OCC ? 86 % of control

Any idea what T/C was measured for COC1OC(COS(=O)(=O)c2ccc(C)cc2)C(OS(=O)(=O)c2ccc(C)cc2)C(OS(=O)(=O)c2ccc(C)cc2)C1OS(=O)(=O)c1ccc(C)cc1 (stereo unspecified) ? 91 % of control

Any idea what T/C was measured for CCN(CC)CCC(=O)Nc1cccc2c1C(=O)c1c(c(O)c3ccccc3c1O)C2=O ? 90 % of control

Any idea what T/C was measured for C/C(=C\Cl)CO ? 95 % of control

Any idea what T/C was measured for c1ccc2c(c1)Cc1cc(NC3=NCCO3)ccc1-2 ? 89 % of control

Any idea what T/C was measured for CCOC(=O)C1=C(C)N(Cc2ccccc2)C(C)=C(C(=O)OCC)C1(C)C ? 98 % of control

Any idea what T/C was measured for O=C(O)C(SCc1ccccc1)c1ccccc1 (stereo unspecified) ? 95 % of control

Any idea what T/C was measured for O=[N+]([O-])/C=C/c1ccc2ccccc2n1 ? 95 % of control

Any idea what T/C was measured for COc1ccccc1NC(=O)Nc1ccc(S(N)(=O)=O)cc1 ? 90 % of control

Any idea what T/C was measured for O=C(O)c1cccc2cccc(C(=O)c3cccs3)c12 ? 98 % of control
